Taken from the METLIN SMRT retention time set (Domingo-Almenara et al. 2019).

# Assay name: gradient 5% acetonitrile 3 min, to 50% in 2 min, to 85% in 15 min, held 3 min, 100 µL/min
# Condition description: column: Zorbax Extend-C18 2.1 x 50 mm; eluents: water / acetonitrile, 0.1% formic acid
Reported metric: RP-LC retention time

Some solved cases for reference:
COc1ccc(CNC(=O)N2C[C@H](c3nc(-c4ccncc4)no3)[C@@H](C)C2)cc1 : 732 s
O=C(c1ccoc1)N1CCN(S(=O)(=O)c2cc(-c3noc(C4CCC4)n3)cs2)CC1 : 943 s
O=c1c2cc(-c3ccccc3)nn2ccn1Cc1noc(CN2CCCCCC2)n1 : 671 s
COc1cc(C(=O)N2CCC3(CC2)NC(=O)c2ccc(Cl)cc2N3)cc(OC)c1OC : 721 s
COCCNCc1c(C(=O)O)c(C)n(Cc2ccc(Cl)cc2)c1C : 704 s

For each of the items listed, what is its RP-LC retention time?
1. CCc1nnc(-c2ccc3ccn(CC(=O)N4CCN(c5ccc(F)cc5)CC4)c3c2)o1
2. CCSc1nnc(-c2nn(C)c3c2CN(S(=O)(=O)c2ccc(C)c(F)c2)CC3)n1CC
3. O=C(C1CCCCC1)N1CCN(c2nc(CN3CCOCC3)cs2)CC1
4. Cc1ccc2c(c1)C(=O)NC1(CCN(C(=O)NCc3ccccc3)CC1)N2C
5. Cc1noc(C)c1CCC(=O)N1CCCC1CCc1ncc(C)n1CC1CC1 (stereo not given)

878 s
1000 s
617 s
731 s
662 s
